- Test system: B16 Melanoma
- assay-text: Cytotoxicity of Invented Compounds Against B16 Melanoma
- Format: cell-based
- measurement-setup: Mus musculus
pIC50: −log10 of the molar value.

compound: CC(=O)Nc1ccc2[nH]c(C(=O)Nc3ccc4[nH]c(C(=O)N5CC(CCl)c6c5cc(O)c5ccccc65)cc4c3)cc2c1 (stereo not shown)
pIC50: 8.14
--
compound: O=C(CCCO)Nc1ccc2[nH]c(C(=O)N3CC(CCl)c4c3cc(O)c3ccccc43)cc2c1 (stereo not shown)
pIC50: 8.40
--
compound: Nc1ccc2[nH]c(C(=O)N3CC(CCl)c4c3cc(O)c3ccccc43)cc2c1 (stereo not shown)
pIC50: 7.96
--
compound: COc1cccc2c1C(=O)c1c(O)c3c(c(O)c1C2=O)C[C@@](O)(C(=O)CO)C[C@@H]3O[C@H]1C[C@H](N)[C@H](O)[C@H](C)O1 [Doxorubicin, reference compound]
pIC50: 6.11

---

IC50 values by entry
- Test system: U937 Cells
- assay-text: Cytotoxicity of Invented Compounds Against U937 Cells
- Format: cell-based
- measurement-setup: 48 h incubation, 3H-thymidine last 24 h
- Procedure: Some of the new compounds were tested for their cytotoxicity against cancer cells. U937 cells were used to determine the IC50 values. The assay was set up in triplicate in 96 well flat bottom microtiter plates. […] The assay was harvested and counted with the packard Matrix 96 beta counter. The results were expressed as the percent growth inhibition calculated from the percent decrease in cpm of treated cells relative to the untreated controls.

molecule: O=C(C=Cc1cc2ccccc2o1)Nc1ccc2[nH]c(C(=O)N3CC(CCl)c4c3cc(O)c3ccccc43)cc2c1 (centres unmarked) [YW-215]
IC50 (nM): 0.09
//
molecule: CC(=O)Nc1cc(C(=O)N2CC(CCl)c3c2cc(O)c2ccccc32)n(C)c1 (centres unmarked) [YW-161]
IC50 (nM): 5
